target: Muscarinic acetylcholine receptor M1 (Rattus norvegicus) (UniProt P08482); settings: Ileum
Description: In vitro for muscarinic M1 receptor agonist potency in the ileum model as a functional measure of peripheral muscarinic activity.
In this section, each of the compounds is paired with its reported pD2.

# compound, targetEntity, pD2
rows = [
    ("C[C@@H]1OCC2(CN3CCC2C3)O1 (stereo not given in full)", "Muscarinic acetylcholine receptor M1 (Rattus norvegicus) (UniProt P08482)", 5.5),
    ("C#CC1OCC2(CCN(C)CC2)O1 (stereo not given)", "Muscarinic acetylcholine receptor M1 (Rattus norvegicus) (UniProt P08482)", 5.2),
    ("CC1OC[C@@]2(CN3CCC2C3)O1 (stereo not given in full)", "Muscarinic acetylcholine receptor M1 (Rattus norvegicus) (UniProt P08482)", 5.9),
    ("C[C@@H]1O[C@H](C[N+](C)(C)C)C[C@H]1O", "Muscarinic acetylcholine receptor M1 (Rattus norvegicus) (UniProt P08482)", 6.8),
    ("CC1C(=O)CC2(CCN(C)CC2)C1=O (stereo not given)", "Muscarinic acetylcholine receptor M1 (Rattus norvegicus) (UniProt P08482)", 5.5),
    ("C[C@@H]1OCC2(CCN(C)C2)O1 (stereo in doubt; cis)", "Muscarinic acetylcholine receptor M1 (Rattus norvegicus) (UniProt P08482)", 5.2),
    ("CC1OC2(CCN(C)CC2)CS1 (stereo not given)", "Muscarinic acetylcholine receptor M1 (Rattus norvegicus) (UniProt P08482)", 6),
    ("CC1OCC2(CC[N+](C)(C)CC2)O1 (stereo not given)", "Muscarinic acetylcholine receptor M1 (Rattus norvegicus) (UniProt P08482)", 5.2),
    ("COC1OCC2(CCN(C)CC2)O1 (stereo not given)", "Muscarinic acetylcholine receptor M1 (Rattus norvegicus) (UniProt P08482)", 4.7),
    ("CC1OCC2(CCN(C)CC2)S1 (stereo not given)", "Muscarinic acetylcholine receptor M1 (Rattus norvegicus) (UniProt P08482)", 5.1),
]

---

biological target: Muscarinic acetylcholine receptor M1 (Rattus norvegicus, UniProt P08482); assay: In vitro 100 nM cortex affinity to displace [3H]- -pirenzepine providing a measure of muscarinic m1 receptor antagonist affinity
reportedMetric: Ki (nM)

# compound, reportedMetric, comparisonSign, recordedValue
records = [
    ("C[C@@H]1OCC2(CN3CCC2C3)O1 (some centres not stated)", "Ki", "=", 6400),
    ("C[C@@H]1OCC2(CCN(C)C2)O1 (stereo in doubt; cis)", "Ki", ">", 10000),
    ("CN1CCC2(CC1)COC(c1ccccc1)O2 (configuration not stated)", "Ki", "=", 620),
    ("CC1SCC2(CCN(C)CC2)S1 (configuration not stated)", "Ki", "=", 2100),
    ("CN1CCC2(CC1)COC(c1ccccc1)(c1ccccc1)O2", "Ki", "=", 0.6),
    ("CN1CCC2(CC1)COC(C)(C)O2", "Ki", ">", 10000),
    ("CCC1C(=O)CC2(CCN(C)CC2)C1=O (configuration not stated)", "Ki", "=", 765),
]

---

# Lookup of reported pD2 keyed by entry
biological target: Muscarinic acetylcholine receptor M1 (Rattus norvegicus); conditions: Ileum

# compound, pD2
data = [
    ("CC1OCC2(CCNCC2)O1 (centres undefined)", 5.1),
    ("C[C@H]1OCC2(CN3CCC2C3)O1 (some centres undefined)", 4.1),
    ("C[C@H]1OC2(CCN(C)C2)CS1 (some centres undefined)", 5.2),
    ("C[C@H]1OC2(CS1)CN1CCC2CC1 (some centres undefined)", 4.9),
    ("CN1CCC2(CC1)COCO2", 4.6),
    ("C[C@@H]1OCC2(CCN(C)C2)O1 (stereo in doubt; trans)", 4.5),
    ("CC[C@H](C)[C@@H]1NC(=O)[C@H](CCCN=C(N)N)NC(=O)[C@@H](CC(=O)O)NC(=O)[C@H]([C@@H](C)CC)NC(=O)[C@@H](CCCN=C(N)N)NC(=O)CNC(=O)CNC(=O)[C@@H](Cc2ccccc2)NC(=O)[C@H](C)NC(=O)[C@@H](NC(=O)[C@H](CO)NC(=O)[C@@H](N)CO)CSSC[C@@H](C(=O)N2C[C@H](C(=O)N[C@H](CCCN=C(N)N)C(=O)O)Cc3ccccc32)NC1=O", 4.1),
    ("CCC1OCC2(CCN(C)CC2)O1 (centres undefined)", 5),
    ("C[C@H]1OC[C@@H](C[N+](C)(C)C)O1", 7.5),
    ("C[C@@H]1OCC2(CN3CCC2CC3)O1 (some centres undefined)", 4.8),
    ("C[C@@H]1OC2(CS1)CN1CCC2CC1 (some centres undefined)", 5.4),
    ("CC1OCC2(CCCN(C)C2)O1 (centres undefined)", "< 4"),
    ("CC1SCC2(CCN(C)CC2)S1 (centres undefined)", 4.9),
    ("CCC1C(=O)CC2(CCN(C)CC2)C1=O (centres undefined)", 6.1),
]

---

Catalogue of compounds with associated Ki
Target: UniProt:P08482
Sequence (P08482 whole entry): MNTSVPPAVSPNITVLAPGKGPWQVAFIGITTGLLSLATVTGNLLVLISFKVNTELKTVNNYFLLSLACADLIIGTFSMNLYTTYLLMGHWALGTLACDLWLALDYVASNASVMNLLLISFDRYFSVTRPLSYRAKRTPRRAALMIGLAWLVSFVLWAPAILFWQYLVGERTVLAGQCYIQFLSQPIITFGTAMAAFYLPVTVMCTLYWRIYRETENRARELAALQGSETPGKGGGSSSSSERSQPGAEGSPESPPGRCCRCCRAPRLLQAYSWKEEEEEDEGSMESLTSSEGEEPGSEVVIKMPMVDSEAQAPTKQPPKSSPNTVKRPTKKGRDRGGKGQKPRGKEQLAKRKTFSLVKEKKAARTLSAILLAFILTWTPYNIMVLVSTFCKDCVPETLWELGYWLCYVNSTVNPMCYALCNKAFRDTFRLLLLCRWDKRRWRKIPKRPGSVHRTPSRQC
Test: In vitro 100 nM cortex affinity to displace [3H]- -CD providing a measure of muscarinic m1 receptor agonist affinity
reportedMetric: Ki

# compound, recordedValue
data = [
    ("CCC1C(=O)CC2(CCN(C)CC2)C1=O (stereo unspecified)", "87 nM"),
    ("CC1SCC2(CCN(C)CC2)S1 (stereo unspecified)", "530 nM"),
    ("CN1CCC2(CC1)COC(C(Cl)(Cl)Cl)O2 (stereo unspecified)", "960 nM"),
    ("C#CC1OCC2(CCN(C)CC2)O1 (stereo unspecified)", "295 nM"),
    ("CN1CCC2(CC1)COC(c1ccccc1)(c1ccccc1)O2", "8.1 nM"),
    ("C[C@@H]1OCC2(CN3CCC2CC3)O1 (stereo partly specified)", "90 nM"),
    ("CC1OCC2(CCNCC2)O1 (stereo unspecified)", "145 nM"),
    ("CN1CCC2(CC1)COC(c1ccccc1)O2 (stereo unspecified)", "2800 nM"),
    ("C[C@H]1OC[C@@H](C[N+](C)(C)C)O1", "6.4 nM"),
    ("C[C@@H]1OCC2(CCN(C)C2)O1 (stereo in doubt; cis)", "550 nM"),
    ("CCC1OCC2(CCN(C)CC2)O1 (stereo unspecified)", "745 nM"),
    ("C[C@@H]1OCC2(CCN(C)C2)O1 (stereo in doubt; trans)", "1750 nM"),
    ("C[C@@H]1OCC2(CN3CCC2C3)O1 (stereo partly specified)", "180 nM"),
    ("CC1OC2(CCN(C)CC2)CS1 (stereo unspecified)", "185 nM"),
    ("CC1OC[C@@]2(CN3CCC2C3)O1 (stereo partly specified)", "30 nM"),
    ("C[C@@H]1OC2(CS1)CN1CCC2CC1 (stereo partly specified)", "515 nM"),
    ("CC1OCC2(CC[N+](C)(C)CC2)O1 (stereo unspecified)", "210 nM"),
    ("C[C@H]1OC2(CCN(C)C2)CS1 (stereo partly specified)", "585 nM"),
    ("CN1CCC2(CC1)COC(C)(C)O2", "> 10000 nM"),
    ("CC1OCC2(CCN(C)CC2)S1 (stereo unspecified)", "720 nM"),
    ("COC1OCC2(CCN(C)CC2)O1 (stereo unspecified)", "870 nM"),
    ("C[C@H]1OC2(CS1)CN1CCC2CC1 (stereo partly specified)", "105 nM"),
    ("C[C@@H]1OCC2(CCN(C)C2)S1 (stereo partly specified)", "9150 nM"),
    ("CC1C(=O)CC2(CCN(C)CC2)C1=O (stereo unspecified)", "175 nM"),
    ("C[C@H]1OCC2(CN3CCC2C3)O1 (stereo partly specified)", "1850 nM"),
    ("CN1CCC2(CC1)COCO2", "1200 nM"),
]
